# TARGET OF ASSAY: MERS RBD-hFc (MERS-CoV (isolate EMC/2012))
# PROTOCOL DETAILS: ELISA on coated MERS RBD-hFc, hybridoma supernatant 1:50, absorbance at 450 nm
Please respond with reported ELISA Binding for every item in the list.
Answers are plain numbers.

Past entries and their recorded results:
BINDER	ELISA Binding
H2aM15287N (antibody, V domains shown) VH: QLQLQESGPGLVKPSETLSLTCTVSGGSISSGNYYWGWIRQPPGKGLEWFGTIYYSGSTYYNPSLKSRVTISVDTSKNQFSLKLSSVTAADTAVYYCARRAAVGHFDYWGQGTLVTVSS VL: DIQMTQSPSTLSASVGDRVTITCRASQSISTWLAWYQQKPGKAPKLLIYEASSLESGVPSRFSGSGFGTEFTLTISRLQPDDFATYFCQQYNTYWTFGQGTKVEIK	2.53
H2aM15270N (antibody, V domains shown) VH: EVQLLESGGGLEQPGGSLRLSCAASGFTFSSYAMIWVRQAPGKGLEWVSTISGSGVNTYYADSVKGRFTISRDNSKNTLHLQMNSLRAEDTAVYHCAKEGLDCANGVCYNYYGMDVWGQGTTVTVSS VL: DIQMTQSPSSLSASVGDRVTITCRASQSINSFLNWYHQKPGKAPKFLIYSASNLQSGVPSRFSGSGSGTDFTLTISSLQPEDFSTYYCQQSYSIPLTFGGGTKVEIK	2.04

As a next step, examine the binder that follows.
Which measured ELISA Binding value corresponds to H1M15289N (antibody, V domains shown) VH: QVQLQESGPGLVKPSETLSLTCTVSGGSISSYYWSWIRQPPGKGLEWIGYIYYSGSANYNPSLKSRVTISVDTSKNQFSLKLSSVTAADTAVYYCVRDRDLLLDHWGQGTLVTVSS VL: EIVMTQSPATLSVSPGKRATLSCRASQSVSSNLAWYQQKPGQAPRLLIYGASTRTTGFPARFSGSGSGTDFTLTISSLQSEDFAVYYCQQYNNWPYTFGQGTMLEIK ?
2.73

Hello, the source for this data is patent US20190351049A1, in case you need it.
